Reference source for all entries: patent US20240116985A1

target: full-length beta-Catenin (Uniprot ID P35222) (Homo sapiens (Human)) (UniProt P35222); assay: fluorescence polarization competition; full-length beta-catenin, competitor 5FAM-TCF4(10-53) probe
Starred links: 1 amine or outer side, 2 acyl side, 3 side chain; linkers in the order of their positions; H or OH if unused. Positions of bridges follow the written chain, without caps; N, C: chain ends. Non-standard residues stand in square brackets, D forms with d. Primed or numbered codes have the meaning given here. PyrS2″ = (S)-3-amino-1-((pent-4-en-1-yloxy)carbonyl)pyrrolidine-3-carboxylic acid (stapling residue), C=CCCCOC(=O)N1CC[C@@](N[*:1])(C(=O)[*:2])C1; B5(4) = 2,2-bis(4-pentenyl)glycine = 2-amino-2-(pent-4-en-1-yl)hept-6-enoic acid (stitching residue), C=CCCCC(CCCC=C)(N[*:1])C(=O)[*:2]; B5(5) = 2,2-bis(4-pentenyl)glycine, 2-amino-2-(pent-4-en-1-yl)hept-6-enoic acid (stitching residue), C=CCCCC(CCCC=C)(N[*:1])C(=O)[*:2]; B5(21) = 2-amino-2-(pent-4-en-1-yl)hept-6-enoic acid, bis(4-pentenyl)glycine (stitching residue), C=CCCCC(CCCC=C)(N[*:1])C(=O)[*:2]; 5iPr3COOHF = (S)-3-(2-amino-2-carboxyethyl)-5-isopropylbenzoic acid, CC(C)c1cc(C[C@H](N[*:1])C(=O)[*:2])cc(C(=O)[*:3])c1; Phe(2-CF3) = N[C@@H](Cc1ccccc1C(F)(F)F)C(=O)O; Phe(4-NH2) = Nc1ccc(C[C@H](N)C(=O)O)cc1; Bta = N[C@@H](Cc1csc2ccccc12)C(=O)O; αAllylPro = C=CC[C@@]1(C(=O)O)CCCN1; tBuAla = CC(C)(C)C[C@H](N)C(=O)O; 3Thi = N[C@@H](Cc1ccsc1)C(=O)O; S8 = C=CCCCCCC[C@](C)(N)C(=O)O; Aib = CC(C)(N)C(=O)O
Reported pIC50 values for a set of binders
Lab note: report pIC50 as minus log10 of the concentration in molar units, number only.

>>> measurement("Ac-[αAllylPro]DA[B5(4)]DEAA[Phe(4-NH2)]N[S8]F[Bta]Q-NH2 (staple 1-4, 4-11) [I-461]")
6.90
>>> measurement("Ac-[αAllylPro]D[tBuAla][B5(21)]DD[Aib][Aib]FL[PyrS2″][3Thi][Bta]Q-NH2 (staple 1-4, 4-11; also: earlier eluting HPLC peak (staple isomer composition)) [I-1179]")
6.46

What does the data say about its pIC50? Entry: Ac-[αAllylPro]DL[B5(5)]DEAAFN[S8]F[Bta]Q[Aib]-NH2 (staple 1-4, 4-11; also: earlier-eluting staple isomer) [I-736]
6.36

For Ac-[αAllylPro]DA[B5(4)]DEAA[3Thi]N[S8]F[Bta]Q-NH2 (staple 1-4, 4-11) [I-448] , what is its reported pIC50?
7.04

Look up pIC50 for this binder: Ac-[αAllylPro]D[tBuAla][B5(5)]D[5iPr3COOHF]QAFL[PyrS2″][Phe(2-CF3)][Bta]A-NH2 (staple 1-4, 4-11) [I-2431]
7.48
